# assay comment: Antiproliferative activity against human H1299 cells after 24 hrs by MTT assay
# Type: functional, cell-based
# experimental parameters: NCI-H1299, 24 h
// boundary case: IC50 equal to 7 µM maps to Not fulfilled; strictly smaller maps to Fulfilled

Some solved cases for reference:
COc1ccc(C(=O)NNC(=O)/C=C/c2ccc(O)c(O)c2)cc1 :: Fulfilled
COc1ccc(C(=O)NNC(=O)/C=C/c2ccc(O)cc2)cc1 :: Fulfilled
O=C(/C=C/c1ccc(O)cc1)NNC(=O)c1ccccc1 :: Not fulfilled
COc1cc(/C=C/C(=O)NNC(=O)c2ccc(O)cc2)ccc1O :: Fulfilled
COc1ccc(C(=O)NNC(=O)/C=C/c2ccc(O)c(OC)c2)cc1 :: Fulfilled

-- ask Given the entry O=C(/C=C/c1ccc(O)c(O)c1)NNC(=O)c1ccccc1 , would its reported IC50 be below 7 µM?
-- reply Fulfilled

-- ask Bench note: check whether CC[C@@]1(O)C(=O)OCc2c1cc1n(c2=O)Cc2cc3c(CN(C)C)c(O)ccc3nc2-1 [TOPOTECAN] shows IC50 below 7 µM
-- reply Fulfilled

-- ask Dear reviewer, please state whether COc1cc(/C=C/C(=O)NNC(=O)c2ccccc2)ccc1O has IC50 strictly beneath 7 µM.
-- reply Fulfilled

-- ask Say whether its IC50 is strictly beneath 7 µM. Entry: COc1cc(/C=C/C(=O)NNC(=O)c2ccccc2)cc(OC)c1O
-- reply Not fulfilled

-- ask Is IC50 of O=C(/C=C/c1ccc(O)cc1)NNC(=O)c1ccc(O)cc1 strictly below 7 µM?
-- reply Fulfilled

-- ask Bench note: check whether O=C(/C=C/c1ccc(O)c(O)c1)NNC(=O)c1ccc(O)cc1 shows IC50 below 7 µM
-- reply Fulfilled

-- ask Bench note: check whether COc1ccc(C(=O)NNC(=O)/C=C/c2cc(OC)c(O)c(OC)c2)cc1 shows IC50 below 7 µM
-- reply Not fulfilled

-- ask Determine if COc1cc(/C=C/C(=O)NNC(=O)c2ccc(O)cc2)cc(OC)c1O shows IC50 strictly lower than 7 µM.
-- reply Not fulfilled

###

# System: MCF7
# assay comment: Antiproliferative activity against human MCF7 cells after 24 hrs by MTT assay
# Format: functional, cell-based
# experimental parameters: MCF7, 24 h
Note: every record was labeled by where its IC50 sits among bottom range (below 5 µM), center range (5 µM to below 7 µM), top range (7 µM or more)

# example entries with known answers
COc1cc(/C=C/C(=O)NNC(=O)c2ccc(O)cc2)ccc1O :: bottom range
CC[C@@]1(O)C(=O)OCc2c1cc1n(c2=O)Cc2cc3c(CN(C)C)c(O)ccc3nc2-1 [TOPOTECAN] :: bottom range
COc1cc(/C=C/C(=O)NNC(=O)c2ccccc2)cc(OC)c1O :: top range
COc1cc(/C=C/C(=O)NNC(=O)c2ccccc2)ccc1O :: center range
O=C(/C=C/c1ccc(O)c(O)c1)NNC(=O)c1ccc(O)cc1 :: center range

-- ask Which category does the recorded IC50 put O=C(/C=C/c1ccc(O)cc1)NNC(=O)c1ccccc1 in?
-- reply top range

-- ask Hey, which category is COc1cc(/C=C/C(=O)NNC(=O)c2ccc(O)cc2)cc(OC)c1O in, do you know?
-- reply top range

-- ask Lab log: O=C(/C=C/c1ccc(O)cc1)NNC(=O)c1ccc(O)cc1 — assign IC50 category
-- reply top range

-- ask Which class holds O=C(/C=C/c1ccc(O)c(O)c1)NNC(=O)c1ccccc1 ?
-- reply bottom range

-- ask # bin lookup: classify COc1ccc(C(=O)NNC(=O)/C=C/c2ccc(O)cc2)cc1 by its IC50
-- reply center range

-- ask Consider COc1ccc(C(=O)NNC(=O)/C=C/c2ccc(O)c(OC)c2)cc1 . To which IC50 class does it belong?
-- reply center range
